# measured-on: Human MIF (MIF tautomerase) (Homo sapiens, UniProt P14174)
# Construct: purchased ProSpec
# Sequence (P14174 2-115 limits assumed): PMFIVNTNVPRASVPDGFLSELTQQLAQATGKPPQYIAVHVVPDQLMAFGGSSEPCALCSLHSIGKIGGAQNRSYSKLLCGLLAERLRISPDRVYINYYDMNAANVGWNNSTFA
# measurement-description: MIF Tautomerase Inhibitory Assay with L-Dopachrome Methyl Ester
# Assay type: biochemical
# experimental-parameters: relative potency class, MIF tautomerase inhibition; L-dopachrome methyl ester substrate, pH 7.34, no pre-incubation; read-out: IC50
pIC50: −log10 of the molar value.
reported-property: pIC50

Request: Which pIC50 value belongs to O=C(OC1CCCC1)C1CCC(CCN2Cc3ccc(O)cc3C2=O)CC1 (stereo not drawn) [drawing 139] ?
Result: 5.30 to 6.00

Request: Which pIC50 value belongs to CC1CCC(N2Cc3ccc(O)cc3C2=O)CC1 (stereo not drawn) ?
Result: 5.30 to 6.00

Request: Which pIC50 value belongs to COC(=O)[C@H](NC(C)C1CCC(CN2Cc3ccc(O)c(F)c3C2=O)CC1)C(C)C (stereo partly drawn) ?
Result: > 6.00

Request: Which pIC50 value belongs to CCOC(CCC1CCCCC1)[C@H]1CC[C@H](CN2Cc3ccc(O)cc3C2=O)CC1 (stereo partly drawn) ?
Result: > 6.00

Request: Which pIC50 value belongs to "CC(C)OC(=O)[C@H]1CC[C@H](CN2Cc3ccc(O)cc3C2=O)CC1" ?
Result: > 6.00

Request: Which pIC50 value belongs to "O=C1c2cc(O)ccc2CN1CC1CCCCC1" ?
Result: 5.30 to 6.00

Request: Which pIC50 value belongs to "CC(=O)NC[C@H]1CC[C@H](CN2Cc3ccc(O)c(F)c3C2=O)CC1" ?
Result: > 6.00

Request: Which pIC50 value belongs to "N[C@@H](COc1cccc(OC[C@H]2CC[C@H](CN3Cc4ccc(O)c(F)c4C3=O)CC2)c1)C(=O)O" ?
Result: > 6.00

Request: Which pIC50 value belongs to "O=C1c2cc(O)ccc2CN1C[C@H]1CC[C@H](COc2cccc(F)c2)CC1" ?
Result: > 6.00

Request: Which pIC50 value belongs to COC(=O)[C@@H](C)NC(C)C1CCC(CN2Cc3ccc(O)c(F)c3C2=O)CC1 (stereo partly drawn) [drawing 113] ?
Result: > 6.00

Request: Which pIC50 value belongs to "CCOC(=O)CN1Cc2ccc(O)cc2C1=O" ?
Result: 3.70 to 4.30

Request: Which pIC50 value belongs to CCC(Oc1cccc(OC)c1)[C@H]1CC[C@H](CN2Cc3ccc(O)c(F)c3C2=O)CC1 (stereo partly drawn) ?
Result: > 6.00

Request: Which pIC50 value belongs to CC(Oc1cccc(F)c1)[C@H]1CC[C@H](CN2Cc3ccc(O)c(F)c3C2=O)CC1 (stereo partly drawn) ?
Result: > 6.00

Request: Which pIC50 value belongs to CC(=O)N(C)CCOc1cccc(OC(C)[C@H]2CC[C@H](CN3Cc4ccc(O)c(F)c4C3=O)CC2)c1 (stereo partly drawn) ?
Result: > 6.00

Request: Which pIC50 value belongs to "CC(=O)N[C@@H](COc1cccc(OC[C@H]2CC[C@H](CN3Cc4ccc(O)c(F)c4C3=O)CC2)c1)C(=O)O" ?
Result: > 6.00

Request: Which pIC50 value belongs to "O=C1c2cc(O)ccc2CN1C[C@H]1CC[C@H](C(=O)OC2CCCCC2)CC1" ?
Result: 5.30 to 6.00

Request: Which pIC50 value belongs to CC(NCC(N)=O)[C@H]1CC[C@H](CN2Cc3ccc(O)c(F)c3C2=O)CC1 (stereo partly drawn) ?
Result: > 6.00

Request: Which pIC50 value belongs to COc1cccc(OC(C)[C@H]2CC[C@H](CN3Cc4ccc(O)c(F)c4C3=O)CC2)c1 (stereo partly drawn) ?
Result: > 6.00

Request: Which pIC50 value belongs to CCC(C)OC(=O)[C@H]1CC[C@H](CN2Cc3ccc(O)cc3C2=O)CC1 (stereo partly drawn) ?
Result: 5.30 to 6.00

Request: Which pIC50 value belongs to "O=C1OCc2cc(OC[C@H]3CC[C@H](CN4Cc5ccc(O)cc5C4=O)CC3)ccc21" ?
Result: 5.30 to 6.00

Request: Which pIC50 value belongs to "O=C1c2cc(O)ccc2CN1[C@H](CO)C1CCCCC1" ?
Result: 4.30 to 5.00

Request: Which pIC50 value belongs to "O=C(OC1CCCCC1)c1ccc(CN2Cc3ccc(O)cc3C2=O)cc1" ?
Result: 4.30 to 5.00

Request: Which pIC50 value belongs to CC(=O)N[C@@H](COc1cccc(OC(C)[C@H]2CC[C@H](CN3Cc4ccc(O)c(F)c4C3=O)CC2)c1)C(=O)O (stereo partly drawn) ?
Result: > 6.00

Request: Which pIC50 value belongs to CC(O)[C@H]1CC[C@H](CN2Cc3cc(F)c(O)c(F)c3C2=O)CC1 (stereo partly drawn) ?
Result: > 6.00

Request: Which pIC50 value belongs to "COc1cccc(OC[C@H]2CC[C@H](CN3Cc4ccc(O)cc4C3=O)CC2)c1" ?
Result: > 6.00

Request: Which pIC50 value belongs to O=C1c2cc(O)ccc2CN1C[C@H]1CC[C@H](C(O)CC2CCCCC2)CC1 (stereo partly drawn) ?
Result: > 6.00

Request: Which pIC50 value belongs to CNC(=O)[C@H](Cc1ccccc1)NC(C)C1CCC(CN2Cc3ccc(O)c(F)c3C2=O)CC1 (stereo partly drawn) [drawing 99] ?
Result: > 6.00

Request: Which pIC50 value belongs to "O=C1c2cc(O)ccc2CN1[C@@H](CO)C1CCCCC1" ?
Result: 4.30 to 5.00

Request: Which pIC50 value belongs to CNC(=O)CCNC(C)C1CCC(CN2Cc3ccc(O)c(F)c3C2=O)CC1 (stereo not drawn) ?
Result: > 6.00

Request: Which pIC50 value belongs to COC(=O)[C@@H](C)NC(C)C1CCC(CN2Cc3ccc(O)c(F)c3C2=O)CC1 (stereo partly drawn) [drawing 112] ?
Result: > 6.00

Request: Which pIC50 value belongs to CC(C)C[C@@H](NC(C)C1CCC(CN2Cc3ccc(O)c(F)c3C2=O)CC1)C(=O)O (stereo partly drawn) [drawing 104] ?
Result: > 6.00

Request: Which pIC50 value belongs to "CC(C)(C)COC(=O)[C@H]1CC[C@H](CN2Cc3ccc(O)cc3C2=O)CC1" ?
Result: > 6.00

Request: Which pIC50 value belongs to CC(N[C@@H](C)C(=O)O)[C@H]1CC[C@H](CN2Cc3ccc(O)c(F)c3C2=O)CC1 (single isomer, unassigned) ?
Result: > 6.00

Request: Which pIC50 value belongs to "O=C1c2cc(O)ccc2CN1C[C@H]1CC[C@H](CO)CC1" ?
Result: 5.30 to 6.00

Request: Which pIC50 value belongs to CC(C)[C@@H](CO)NC(C)[C@H]1CC[C@H](CN2Cc3ccc(O)cc3C2=O)CC1 (stereo partly drawn) [drawing 110] ?
Result: > 6.00

Request: Which pIC50 value belongs to CC(N)[C@H]1CC[C@H](CN2Cc3cc(F)c(O)c(F)c3C2=O)CC1 (stereo partly drawn) ?
Result: 5.30 to 6.00

Request: Which pIC50 value belongs to "O=C1OCc2c(OC[C@H]3CC[C@H](CN4Cc5ccc(O)cc5C4=O)CC3)cccc21" ?
Result: 5.30 to 6.00

Request: Which pIC50 value belongs to "O=C1c2cc(O)ccc2CN1CCc1cccc(O)c1" ?
Result: 5.30 to 6.00

Request: Which pIC50 value belongs to "CC(=O)N(C)CCOc1cccc(OC[C@H]2CC[C@H](CN3Cc4ccc(O)c(F)c4C3=O)CC2)c1" ?
Result: > 6.00

The values you see were collected from patent US9617212B2.
